System: soybean
Experiment: Test C preemergence
Format: in vivo, Glycine max
Details: preemergence, 250 g ai/ha; scale 0 to 100, 0 is no effect, 100 is complete control

| Molecule | Soybean plant response rating |
| --- | --- |
| CCOc1cc(C(=O)NC(C)C)nn1Cc1ccnc(C(F)(F)F)c1 [Compound 188] | 98 |
| CCc1cc(C(=O)NC2CC2)nn1Cc1cc(C(F)(F)C(F)(F)F)nn1C [Compound 226] | 100 |
| CCCNC(=O)c1cc(CCCl)n(Cc2ccnc(C(F)(F)F)c2)n1 [Compound 145] | 95 |
| O=C(NCC(F)(F)F)c1cc(CCCl)n(Cc2ccnc(C(F)(F)F)c2)n1 [Compound 143] | 98 |
| Cc1cc(C(=O)NC(C)C)nn1Cc1ccnc(C(F)(F)F)c1 [Compound 197] | 98 |

// data source = patent US20150105252A1
